# Tested on: MS2 coat protein
# method_description: apparent KD of MS2 coat protein; designed switch direction (-1 OFF switch, 1 ON switch): -1; higher = weaker reporter binding
# study_conditions: input ligand: none
quantity_kind: apparent KD of MS2 coat protein

CCACGACAUGAGGAUCACCCAUGUGAGGAUAUGGCCUGAAAAGCGUGAGCUGAAUCAAUCAGAAGGCGCGUGGG [salish99_ex1_r4_059_4A's] (Eterna round: R97, puzzle: Exclusion 1)
42 nM
GAGAAACAUGAGGAUCACCCAUGUGAGGAUAUGAGCACGCCGGUGACGGUGAUAAGAAUCAGAAGGCACAAAGG [Mat - Exclusion 1 - JL Mod - D33] (Eterna round: R97, puzzle: Exclusion 1)
67.6 nM

Now for the sequence whose apparent KD of MS2 coat protein we want.
Challenge: Query apparent KD of MS2 coat protein for UUCACAUGGACAUAAGAUCACAUGAGGAUCACCCAUGUGAAUAACAAGCUUUUUGCUCGUCUUAUGUCCAAUAAUAG [Stov1/14-A2] (Eterna round: R97, puzzle: Sensor, turn-off variant 1)
Response given: 13.3 nM

This collection of values is drawn from the supplement of paper PMC9170038.
